All values here come from ChEMBL document CHEMBL4229387.

Provide the reported IC50 of each item.
- system.under.test: Dipeptidyl peptidase 4 (Sus scrofa, UniProt P22411)
- Sequence (P22411 whole entry): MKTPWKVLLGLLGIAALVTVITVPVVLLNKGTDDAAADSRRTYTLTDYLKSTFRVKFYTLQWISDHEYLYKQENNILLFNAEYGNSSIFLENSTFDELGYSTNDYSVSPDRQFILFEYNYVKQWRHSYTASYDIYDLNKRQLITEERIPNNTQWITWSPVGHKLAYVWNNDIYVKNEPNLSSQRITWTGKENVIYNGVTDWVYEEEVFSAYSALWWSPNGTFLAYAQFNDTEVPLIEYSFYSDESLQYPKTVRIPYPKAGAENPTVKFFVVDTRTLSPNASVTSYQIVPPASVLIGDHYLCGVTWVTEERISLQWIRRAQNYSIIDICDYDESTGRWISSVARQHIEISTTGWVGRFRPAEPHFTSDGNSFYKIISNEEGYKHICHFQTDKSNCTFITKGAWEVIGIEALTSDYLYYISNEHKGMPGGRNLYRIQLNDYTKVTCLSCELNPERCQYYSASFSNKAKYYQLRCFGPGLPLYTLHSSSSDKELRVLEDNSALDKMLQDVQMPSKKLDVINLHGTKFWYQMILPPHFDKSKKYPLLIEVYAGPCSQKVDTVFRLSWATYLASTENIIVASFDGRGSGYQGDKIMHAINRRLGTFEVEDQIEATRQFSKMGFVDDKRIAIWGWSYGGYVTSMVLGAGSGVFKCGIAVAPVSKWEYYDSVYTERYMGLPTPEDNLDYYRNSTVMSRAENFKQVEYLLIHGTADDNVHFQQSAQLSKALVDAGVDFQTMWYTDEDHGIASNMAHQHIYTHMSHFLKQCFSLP
- test.description: Inhibition of porcine DPP4 after 30 mins by luminescence assay
Lab book: enter the figure in nM, no units written.

Name the recorded IC50 for `COc1cc2oc(-c3ccc(O)cc3)cc(=O)c2c(O)c1OC` .
430

For the compound shown here, O=C1CC(c2ccc(O)cc2)Oc2cc(O)cc(O)c21 (stereo not drawn) , give the reported IC50.
2500

// query IC50 value for entry `COc1c(O)cc2oc(-c3ccc(O)cc3)cc(=O)c2c1O`
490

###

- system.under.test: Dipeptidyl peptidase 4 (Homo sapiens)
- Sequence (P27487 whole entry): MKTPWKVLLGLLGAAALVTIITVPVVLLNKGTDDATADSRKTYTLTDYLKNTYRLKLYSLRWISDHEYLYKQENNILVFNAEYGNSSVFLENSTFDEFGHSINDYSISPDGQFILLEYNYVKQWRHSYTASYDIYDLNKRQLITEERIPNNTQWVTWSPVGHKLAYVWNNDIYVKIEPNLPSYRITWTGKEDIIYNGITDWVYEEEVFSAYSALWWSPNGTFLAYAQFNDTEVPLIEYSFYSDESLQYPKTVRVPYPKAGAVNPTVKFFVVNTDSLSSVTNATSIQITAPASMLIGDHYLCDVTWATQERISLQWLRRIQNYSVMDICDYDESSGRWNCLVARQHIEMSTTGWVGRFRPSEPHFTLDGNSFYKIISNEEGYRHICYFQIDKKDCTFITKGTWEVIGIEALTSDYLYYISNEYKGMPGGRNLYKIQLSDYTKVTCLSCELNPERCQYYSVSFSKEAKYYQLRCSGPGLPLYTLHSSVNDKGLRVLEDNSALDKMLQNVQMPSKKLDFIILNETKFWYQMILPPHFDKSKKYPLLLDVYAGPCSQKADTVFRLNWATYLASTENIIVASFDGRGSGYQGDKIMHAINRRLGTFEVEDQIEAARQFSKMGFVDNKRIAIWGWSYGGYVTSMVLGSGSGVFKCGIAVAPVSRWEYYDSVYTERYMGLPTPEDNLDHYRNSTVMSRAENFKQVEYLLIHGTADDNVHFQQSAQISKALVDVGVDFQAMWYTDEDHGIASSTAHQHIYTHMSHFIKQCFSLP
- test.description: Inhibition of recombinant human DPP4 using Gly-Pro-AMC as substrate after 1 hr by fluorescence assay
readout.kind: pIC50
# reply with the number alone; pIC50 is -log10 of concentration in mol/L

Return reported pIC50; argument: `N[C@@H](CCn1cc(-c2ccncc2)nn1)Cc1cc(F)c(F)cc1F`
7.85
